Molecular target: T1, His-tagged human 4-1BB protein (human, UniProt Q07011 24-186)
T1 construct: Coated on ELISA plates at 2 µg/ml; also called hu4-1BB; soluble human 4-1BB; not shown: His tag
Assay: ELISA, coated His-tagged 4-1BB, anti-human IgG-HRP
QUANTITY KIND: EC50

>  <BINDER>
VV02-1LP-417 (Fc fusion, Llama nanobody tested as fusion with human IgG1 Fc (N297A); not shown: Human IgG1 Fc fragment with N297A, plus the hinge or linker joining it to the nanobody) VHH: QLQLVESGGGLVQPGGSLRLSCAASGFALDYSAIGWFRQAPGKEREGVLCISSSGDVTIYADSVKGRFTISRDNAKNTVYLQMNSLKPEDTAVYYCVAPRICSTYSSDDYWGQGTQVTVSS

>  <ENDPOINT RESULT>
0.0111 µM

$$$$
>  <BINDER>
VV02-3LP-83 (Fc fusion, Llama nanobody tested as fusion with human IgG1 Fc (N297A); not shown: Human IgG1 Fc fragment with N297A, plus the hinge or linker joining it to the nanobody) VHH: EVDLVESGGGLVQPGGSLRLSCAASGFTFRSYAMSWARQVPGKGFEWVAYIYSDGSTYYADSVKGRFTISRDNAKDTVYLHMNSLKFEDMAVYYCATWRSQQVGRWDEYDHWGQGTQVTVSS

>  <ENDPOINT RESULT>
> 0.03 µM

$$$$
>  <BINDER>
VV02-1LP-317 (Fc fusion, not shown: a dimerising Fc or GST; small tags and cut ends, Llama nanobody tested as fusion with human IgG1 Fc (N297A)) VHH: EVDLVESGGGLVQPGGSLRLSCAASGFTFSRSAMSWARQAPGKGFEWVSGIYSGGSTYYVDSVEGRFTISRDNAKNTVYLQMNSLKPEDTAVYYCATWGSQQIGVWHEDDYWGQGTQVTVSS

>  <ENDPOINT RESULT>
> 0.03 µM

$$$$
>  <BINDER>
VV02-2LP-13 (Fc fusion, Llama nanobody tested as fusion with human IgG1 Fc (N297A); not shown: Human IgG1 Fc fragment with N297A, plus the hinge or linker joining it to the nanobody) VHH: AVQLVESGGGLVQPGGSLRLSCAASGFTFSSYAMSWARQVPGKGFEWVAYIYSDGSTYYADSVKGRFTISRDNAKDTVYLHMNSLKFEDMAVYYCATWRSQQVGRWDEYDHWGQGTQVTVSS

>  <ENDPOINT RESULT>
> 0.03 µM

$$$$
>  <BINDER>
VV02-1LP-263 (Fc fusion, Llama nanobody tested as fusion with human IgG1 Fc (N297A); not shown: Human IgG1 Fc fragment with N297A, fused at the C-terminus of the VHH) VHH: EVQLVESGGGLVQPGGSLRLSCAASGFTFSSSAMSWARQTPGKGFEWVSGIYSDGSTYYTDSVKDRFTISRDNAKNTVYLQMNSLKPEDTAVYYCATWGTLRFGVWAEYDHWGQGTQVTVSS

>  <ENDPOINT RESULT>
> 0.03 µM

$$$$
>  <BINDER>
VV02-1LP-422 (Fc fusion, not shown: a dimerising Fc or GST; small tags and cut ends, Llama nanobody tested as fusion with human IgG1 Fc (N297A)) VHH: QLQLVESGGGLVQPGGSLRLSCAASGFTLADYAIGWFRQAPGKEREGVLCISSSGDVTIYADSVKGRFTISRDNAKNTVYLQMNSLKPEDTAVYYCVAPRICSTYSSDDYWGQGTQVTVSS

>  <ENDPOINT RESULT>
0.00037 µM

$$$$
>  <BINDER>
VV02-1SP (1)-55 (Fc fusion, not shown: a dimerising Fc or GST; small tags and cut ends, Llama nanobody tested as fusion with human IgG1 Fc (N297A)) VHH: EVQLVESGGGLVQPGGSLRLSCAASGFTFSSSAMSWARQVPGKGFEWVAYIYSDGSTYYADSVKGRFTISRDNAKDTVYLHMNSLKFEDMAVYYCATWRSQQVGRWDEYDYWGQGIQVTVSS

>  <ENDPOINT RESULT>
> 0.03 µM

$$$$
>  <BINDER>
VV02-1LP-288 (Fc fusion, not shown: a dimerising Fc or GST; small tags and cut ends, Llama nanobody tested as fusion with human IgG1 Fc (N297A)) VHH: EVQVVESGGGLVQPGGSLRLSCAASGSSLDYSAIGWFRQAPGKEREGVLCISSSGDVTIYADSVKGRFTISRDNAKNTVYLQMNSLKPEDTAVYYCVAPRICSTYSSDDYWGQGTQVTVSS

>  <ENDPOINT RESULT>
> 0.03 µM

$$$$
>  <BINDER>
VV02-1SP (1)-168 (Fc fusion, not shown: a dimerising Fc or GST; small tags and cut ends, Llama nanobody tested as fusion with human IgG1 Fc (N297A)) VHH: QVQLVESGGGLVQPGGSLRLSCAASGFTFSSYAMSWARQAPGKDFEWVSYIYSDGNTYYADSVKGRFTISRDNAKNTVYLQMNSLKPEDTAVYYCATWHTLRVGVWDEYDYWGQGTQVTVSS

>  <ENDPOINT RESULT>
> 0.03 µM

$$$$

Values from patent US20240383993A1
